// data source = patent US20250388666A1

Below, each entry is listed with its recorded fold better than Parent (KD).
Molecular target: T1, CEACAM1 (Sino Biological) (human, UniProt P13688 35-428, limits assumed)
T1 construct: may be the same as CEACAM1-HIS; also called hCEACAM1; biotinylated soluble CEACAM1
T1 sequence: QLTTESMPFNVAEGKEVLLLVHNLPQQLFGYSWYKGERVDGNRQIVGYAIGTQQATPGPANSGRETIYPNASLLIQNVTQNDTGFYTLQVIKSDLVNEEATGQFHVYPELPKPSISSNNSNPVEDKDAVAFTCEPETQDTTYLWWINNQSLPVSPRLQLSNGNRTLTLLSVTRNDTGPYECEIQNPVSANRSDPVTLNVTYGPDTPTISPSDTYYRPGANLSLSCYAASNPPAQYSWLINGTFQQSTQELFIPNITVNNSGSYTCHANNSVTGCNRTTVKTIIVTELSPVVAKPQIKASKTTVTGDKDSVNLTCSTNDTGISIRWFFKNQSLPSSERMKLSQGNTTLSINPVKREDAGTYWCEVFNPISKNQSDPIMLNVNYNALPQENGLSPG
Experiment: SPR single-cycle

binder	fold better than Parent (KD)
He14/L19 (antibody, IgG4, V domains shown, IgG4 S241P, kappa) VH: EVQLLESGGGLVQPGGSLRLSCAASGFSFSDYYLYWVRQAPGKGLEWVATISVGGGQTSYADSVKGRFTISRDNSKNTLYLQMNSLRAEDTAMYYCTRGLYYGPSWVAYWGQGTLVTVSS VL: DIVMTQSPDSLAVSLGERATINCKSSQSLLNSANQKNYLAWYQQKPGQPPKLLIYFASTRESGVPDRFSGSGSGTDFTLTISSLQAEDVAVYYCQSHIYPNFTFGGGTKVEIK	1.83 fold
He1/L4#2 (antibody, IgG4, V domains shown, IgG4 S241P, kappa) VH: EVQLLESGGGLVQPGGSLRLSCAASGFSFSDYYLYWVRQAPGKGLEWVATISVGGGQTSYADSVKGRFTISRDNSKNTLYLQMNSLRAEDTAMYYCTRGLYYGPSWFAYWGQGTLVTVSS VL: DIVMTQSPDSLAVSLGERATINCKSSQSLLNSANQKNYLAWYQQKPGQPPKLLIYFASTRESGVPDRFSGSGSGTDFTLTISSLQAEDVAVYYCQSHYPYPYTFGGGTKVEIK	1.83 fold
